Target: T1, human S100A5 (human, UniProt P33763 1-92)
T1 sequence: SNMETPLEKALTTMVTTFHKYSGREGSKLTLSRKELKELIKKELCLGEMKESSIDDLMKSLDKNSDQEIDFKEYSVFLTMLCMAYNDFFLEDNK
Assay: fluorescence polarisation; displacement of the 5FAM probe peptide by increasing unlabeled peptide; 2.4-4.2 µM protein (monomer) with probe at the same concentration; 50 mM TES, 100 mM NaCl, 0.01% Tween-20, pH 7.4; KD,apparent corrected for the probe
Conditions: both partners purified
measured.quantity: pKd
Worth noting: pKd values are minus log10 of concentrations stated in mol/L.

Lookup: What does the record list as pKd for GFDWRWGMEALTGGGSAE (the methods name only the nine test peptides and the probe as ordered from Genscript) [unlabeled probe peptide GFDWRWGMEALTGGGSAE] ?
Found: 5.59
